Test system: PC-3 prostate
Assay: NCI-60 one-dose screen, 48 h (100 = growth as untreated, 0 = no growth, -100 = all killed)
Conditions: 10 µM unless noted
This is part of a sample that, as a whole, favours compounds with a hit. Of some 83,000 tested, about 20% had one in any assay.
Class key for growth values: bin 1 (below 30%), bin 2 (30% to below 80%), bin 3 (80% or more)

Tag the class for O=C1Nc2ccc3c(c2/C1=C\c1cc2c(cc1Br)OCO2)OCO3
bin 1

Tag the class for Nc1nnc(-c2ccc3ccccc3c2O)o1
bin 3

Tag the class for CCCCCCCCCCCCNC(=O)[C@H]1CSC(c2cc(Br)cs2)N1 (stereo not given in full)
bin 1

Tag the class for O=C(Nc1ccc(Cl)c(Cl)c1)NS(=O)(=O)c1cnccc1Oc1ccc(F)cc1
bin 1

Tag the class for Nc1cc2c(cc1C(=O)c1cccc(F)c1)OCCO2
bin 3

Tag the class for C=COC(=O)CCCCCCCCC
bin 3

Tag the class for Cc1ccc(S(=O)(=O)/C(=C\c2ccc(Cl)cc2)C(=O)c2ccccc2)cc1
bin 3

Tag the class for O=C1/C(=C/c2ccc(Cl)cc2)CN(Cc2cn(CCNc3ccnc4cc(Cl)ccc34)nn2)C/C1=C\c1ccc(Cl)cc1
bin 1

Tag the class for O=c1[nH]c(Nc2ccc(S(=O)(=O)O)cc2)nc2nc(Nc3ccc(NC(=S)Nc4ccccc4)cc3)nc(-c3ccc(O)cc3O)c12
bin 3

Tag the class for COc1ccc(-c2nc3sccn3c2/C=C/C(=O)c2cc(F)cc(F)c2)cc1
bin 2

Tag the class for N/C(=N\C(N)=N\c1nc2ccccc2s1)c1ccncc1
bin 2

Tag the class for Cn1cnc2c(N3CCN(C(=O)OCc4ccc5c(Cl)cc(Cl)c(O)c5n4)CC3)nc(Cl)nc21
bin 2

Tag the class for CCc1ccc(-c2ccc(=O)n(-c3ccc(S(N)(=O)=O)cc3)n2)cc1
bin 2

Tag the class for O=C1/C(=C/c2ccc(Cl)cc2)CN(C(=O)CCN2CCC(=NO)CC2)C/C1=C\c1ccc(Cl)cc1
bin 1

Tag the class for COc1ccc2c(c1)C(c1cc(OC)c3c(c1)OCO3)C1=C(COC1=O)N2 (stereo not given)
bin 1

Tag the class for O=C(Nc1cccc(-n2cc(-c3ccncc3)c(-c3ccc(Cl)c(O)c3)n2)c1)c1ccccc1
bin 2

Tag the class for O=C(CSc1nc2ccccc2[nH]1)Nc1ccc(-c2nc3ccccc3s2)c(Cl)c1
bin 1

Tag the class for COc1cc(C(=O)/C=C/c2c(C)n([O-])c3ccc(C(F)(F)F)cc3[n+]2=O)cc(OC)c1OC
bin 3

Tag the class for COc1ccc(-c2cnnn2-c2nonc2-n2cccc2)cc1OC
bin 2
